Test: protein stability index of a GFP-peptide fusion (GPS, HEK-293T) (PSI 1-6); higher = more stable;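 further: 24-mer peptide tiles fused after GFP, lentivirally expressed, FACS-sorted into six equal bins by GFP/DsRed ratio, decoded by Illumina sequencing, PSI is the read-weighted mean bin number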
Details: treatment: DMSO; c terminus: a fixed tail appended
// class assignment uses protein stability index with these ranges: low = under 3, intermediate = from 3 up to 4, high = 4 and over

Example cases with answers are listed next.
ordered-residues	group-label
HRGLLTMQLKSPMPSSTTQKDSYQ [SPAG8]	intermediate
SSFPPSPGPSPDVQLATLAQRVKE [AUP1]	high
MHYQMSVTLKYEIKKLIYVHLVIW [JAGN1]	intermediate
QSIQQAMRYLRNHCLDQVGLFRKS [DLC1]	low

-- ask Looking at KCQVGFSSSDLVMRARDSVYHIEC [ISL2] , which class would you pick?
-- reply low

-- ask Subsequent entry: LQQDFQNIQETHRLYRLKLEELTK [TMEM120A]
-- reply intermediate

-- ask Subsequent entry: LGTAIFIEADRRRAQLHVQGLLHE [SPNS1]
-- reply low
